System: Rattus norvegicus
Test: Antidiabetic activity in alloxan-induced diabetic Wistar rat model assessed as reduction in blood glucose level at 36 mg/kg, po administered once daily for 15 days measured after 6 hrs postdose
Assay type: functional
Reported Activity values are given for each entry in this list.

{"mol smiles": "COc1ccc([C@H]2CN(C)[C@@]3(C(=O)Nc4ccccc43)[C@@]23SC(=O)NC3=O)cc1OC", "Activity / mg/dL": 115.8}
{"mol smiles": "COc1ccc([C@H]2CN(C)[C@@]3(C(=O)Nc4ccccc43)[C@@]23SC(=O)NC3=S)cc1OC", "Activity / mg/dL": 95.8}
{"mol smiles": "CN1C[C@H](c2ccc(O)c(O)c2)[C@]2(SC(=O)NC2=S)[C@]12C(=O)Nc1ccccc12", "Activity / mg/dL": 120.5}
{"mol smiles": "CN1C[C@H](c2ccc(F)c(F)c2)[C@]2(SC(=O)NC2=O)[C@]12C(=O)Nc1ccccc12", "Activity / mg/dL": 115.3}
{"mol smiles": "CN1C[C@H](c2ccc(F)c(F)c2)[C@]2(SC(=O)NC2=S)[C@]12C(=O)Nc1ccccc12", "Activity / mg/dL": 106.5}
{"mol smiles": "Cc1ccc([C@H]2CN(C)[C@@]3(C(=O)Nc4ccccc43)[C@@]23SC(=O)NC3=O)cc1", "Activity / mg/dL": 125.5}

* * *

System: Rattus norvegicus
Assay: Reduction of serum creatinine level in alloxan-induced diabetic Wistar rat model at 36 mg/kg, po administered once daily for 15 days measured on day 18
Assay type: functional
Reported Activity values are given for each entry in this list.

{"mol smiles": "CN1C[C@H](c2ccc(F)c(F)c2)[C@]2(SC(=O)NC2=O)[C@]12C(=O)Nc1ccccc12", "Activity": "2.1 mg/dL"}
{"mol smiles": "COc1ccc([C@H]2CN(C)[C@@]3(C(=O)Nc4ccccc43)[C@@]23SC(=O)NC3=O)cc1OC", "Activity": "1.8 mg/dL"}
{"mol smiles": "CN1C[C@H](c2ccc(F)c(F)c2)[C@]2(SC(=O)NC2=S)[C@]12C(=O)Nc1ccccc12", "Activity": "1.5 mg/dL"}
{"mol smiles": "COc1ccc([C@H]2CN(C)[C@@]3(C(=O)Nc4ccccc43)[C@@]23SC(=O)NC3=S)cc1OC", "Activity": "2.2 mg/dL"}
{"mol smiles": "Cc1ccc([C@H]2CN(C)[C@@]3(C(=O)Nc4ccccc43)[C@@]23SC(=O)NC3=O)cc1", "Activity": "1.8 mg/dL"}
{"mol smiles": "CN1C[C@H](c2ccc(O)c(O)c2)[C@]2(SC(=O)NC2=S)[C@]12C(=O)Nc1ccccc12", "Activity": "2 mg/dL"}

* * *

Reported Activity values are given for each entry in this list.
Test system: Rattus norvegicus
Experiment: Reduction of serum GPT level in alloxan-induced diabetic Wistar rat model at 36 mg/kg, po administered once daily for 15 days measured on day 18
Assay type: functional
property name: Activity (U/ml)

{"mol smiles": "COc1ccc([C@H]2CN(C)[C@@]3(C(=O)Nc4ccccc43)[C@@]23SC(=O)NC3=S)cc1OC", "target under test": "Rattus norvegicus", "property name": "Activity", "quantity unit": "U/ml", "value observed": 121}
{"mol smiles": "CN1C[C@H](c2ccc(F)c(F)c2)[C@]2(SC(=O)NC2=O)[C@]12C(=O)Nc1ccccc12", "target under test": "Rattus norvegicus", "property name": "Activity", "quantity unit": "U/ml", "value observed": 132}
{"mol smiles": "COc1ccc([C@H]2CN(C)[C@@]3(C(=O)Nc4ccccc43)[C@@]23SC(=O)NC3=O)cc1OC", "target under test": "Rattus norvegicus", "property name": "Activity", "quantity unit": "U/ml", "value observed": 140.5}
{"mol smiles": "CN1C[C@H](c2ccc(O)c(O)c2)[C@]2(SC(=O)NC2=S)[C@]12C(=O)Nc1ccccc12", "target under test": "Rattus norvegicus", "property name": "Activity", "quantity unit": "U/ml", "value observed": 142.8}
{"mol smiles": "Cc1ccc([C@H]2CN(C)[C@@]3(C(=O)Nc4ccccc43)[C@@]23SC(=O)NC3=O)cc1", "target under test": "Rattus norvegicus", "property name": "Activity", "quantity unit": "U/ml", "value observed": 129.8}
{"mol smiles": "CN1C[C@H](c2ccc(F)c(F)c2)[C@]2(SC(=O)NC2=S)[C@]12C(=O)Nc1ccccc12", "target under test": "Rattus norvegicus", "property name": "Activity", "quantity unit": "U/ml", "value observed": 137.5}
